Provide the reported CC50 of each item.
assay: in vitro; conditions: human
Express your answer in µM, writing the number without its unit.

Any idea what its CC50 is? The compound is CCOC(=O)/C=C/[C@H](C[C@@H]1CCNC1=O)NC(=O)[C@@H](CC(=O)[C@@H](NC(=O)c1cc(C)on1)C(C)C)Cc1ccc(F)cc1 134

Any idea what its CC50 is? The compound is Cc1cc(CCCOc2c(C)cc(-c3noc(C(F)(F)F)n3)cc2C)on1 11.3

Any idea what its CC50 is? The compound is NC(=O)c1ncn([C@@H]2O[C@H](CO)[C@@H](O)[C@H]2O)n1 1100

Any idea what its CC50 is? The compound is Nc1cc2nc[nH]c2c(=O)[nH]1 360
